biological target: Epidermal growth factor receptor (Homo sapiens, UniProt P00533, L858R/T790M); experiment: Inhibition of EGFR T790M/L858R double mutant (unknown origin) using substrate-biotin by ELISA-based mobility shift assay
Sequence (P00533 25-1210 T790M/L858R limits assumed): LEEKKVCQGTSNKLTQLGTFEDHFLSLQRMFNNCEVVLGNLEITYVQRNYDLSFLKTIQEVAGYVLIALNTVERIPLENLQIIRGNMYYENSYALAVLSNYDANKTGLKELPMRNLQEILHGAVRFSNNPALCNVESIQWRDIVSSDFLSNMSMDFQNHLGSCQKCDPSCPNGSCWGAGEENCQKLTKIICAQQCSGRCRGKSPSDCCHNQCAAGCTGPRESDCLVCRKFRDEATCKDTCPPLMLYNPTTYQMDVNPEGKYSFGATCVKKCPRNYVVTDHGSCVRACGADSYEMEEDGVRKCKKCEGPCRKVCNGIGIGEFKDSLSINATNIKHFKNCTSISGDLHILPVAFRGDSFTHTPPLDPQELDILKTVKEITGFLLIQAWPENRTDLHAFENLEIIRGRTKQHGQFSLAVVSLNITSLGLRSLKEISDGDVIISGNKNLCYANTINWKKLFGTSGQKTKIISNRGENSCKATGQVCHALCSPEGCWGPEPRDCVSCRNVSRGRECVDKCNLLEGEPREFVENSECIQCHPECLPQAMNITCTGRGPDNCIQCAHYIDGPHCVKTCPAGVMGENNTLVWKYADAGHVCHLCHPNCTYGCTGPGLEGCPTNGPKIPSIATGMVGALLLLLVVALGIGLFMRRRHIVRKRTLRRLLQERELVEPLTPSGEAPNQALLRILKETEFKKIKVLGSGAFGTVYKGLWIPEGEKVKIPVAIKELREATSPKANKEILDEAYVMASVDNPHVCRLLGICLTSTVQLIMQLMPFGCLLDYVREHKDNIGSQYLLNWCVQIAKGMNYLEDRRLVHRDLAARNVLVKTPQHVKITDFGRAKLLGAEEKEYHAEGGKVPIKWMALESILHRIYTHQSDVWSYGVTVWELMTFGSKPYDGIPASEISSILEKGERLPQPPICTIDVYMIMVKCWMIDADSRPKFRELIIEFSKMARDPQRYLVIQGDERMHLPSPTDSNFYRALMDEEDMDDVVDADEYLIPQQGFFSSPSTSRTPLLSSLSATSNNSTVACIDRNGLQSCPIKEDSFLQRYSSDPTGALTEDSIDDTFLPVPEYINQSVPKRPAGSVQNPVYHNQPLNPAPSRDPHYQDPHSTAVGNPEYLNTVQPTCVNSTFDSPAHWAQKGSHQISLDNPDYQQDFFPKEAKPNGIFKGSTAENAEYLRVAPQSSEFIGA
pIC50: −log10 of the molar value.
property: pIC50

CCC/C=C\C(=O)Nc1cc(Nc2ncc(C#N)c(-c3cn(C)c4ccccc34)n2)c(OC)cc1N(C)CCN(C)C = 7.43
C/C=C\C(=O)Nc1cc(Nc2nccc(-c3cn(C)c4ccccc34)n2)c(OC)cc1N(C)CCN(C)C = 7.28
COc1cc(N(C)CCN(C)C)c(NC(=O)/C=C\C(C)C)cc1Nc1ncc(C#N)c(-c2cn(C)c3ccccc23)n1 = 6.66
C=C(Cl)C(=O)Nc1cc(Nc2ncc(C#N)c(-c3cn(C)c4ccccc34)n2)c(OC)cc1N(C)CCN(C)C = 7.70
CC/C=C\C(=O)Nc1cc(Nc2nc(C)cc(-c3cn(C)c4ccccc34)n2)c(OC)cc1N(C)CCN(C)C = 7.74
COc1cc(N(C)CCN(C)C)c(NC(=O)/C=C\C(C)C)cc1Nc1nc(C)cc(-c2cn(C)c3ccc(F)cc23)n1 = 6.05
CCC/C=C\C(=O)Nc1cc(Nc2ncc(C#N)c(-c3cn(C)c4ccc(F)cc34)n2)c(OC)cc1N(C)CCN(C)C = 6.70
COc1cc(N(C)CCN(C)C)c(NC(=O)/C=C\C(C)C)cc1Nc1nc(C)cc(-c2cn(C)c3ccccc23)n1 = 7.42
CC/C=C\C(=O)Nc1cc(Nc2ncc(C#N)c(-c3cn(C)c4ccccc34)n2)c(OC)cc1N(C)CCN(C)C = 7.80
C=CC(=O)Nc1cc(Nc2nccc(-c3cn(C)c4ccc(F)cc34)n2)c(OC)cc1N(C)CCN(C)C = 10.15
CC/C=C\C(=O)Nc1cc(Nc2nc(C)cc(-c3cn(C)c4ccc(F)cc34)n2)c(OC)cc1N(C)CCN(C)C = 6.00
C=CC(=O)Nc1cc(Nc2nc(C)cc(-c3cn(C)c4ccc(F)cc34)n2)c(OC)cc1N(C)CCN(C)C = 6.23
C=C(Cl)C(=O)Nc1cc(Nc2nc(C)cc(-c3cn(C)c4ccccc34)n2)c(OC)cc1N(C)CCN(C)C = 8.00
